Provenance of the data: ChEMBL document CHEMBL4138303

# target.entity: ATP-sensitive inward rectifier potassium channel 1 (Homo sapiens, UniProt P48048)
# Sequence (P48048 whole entry): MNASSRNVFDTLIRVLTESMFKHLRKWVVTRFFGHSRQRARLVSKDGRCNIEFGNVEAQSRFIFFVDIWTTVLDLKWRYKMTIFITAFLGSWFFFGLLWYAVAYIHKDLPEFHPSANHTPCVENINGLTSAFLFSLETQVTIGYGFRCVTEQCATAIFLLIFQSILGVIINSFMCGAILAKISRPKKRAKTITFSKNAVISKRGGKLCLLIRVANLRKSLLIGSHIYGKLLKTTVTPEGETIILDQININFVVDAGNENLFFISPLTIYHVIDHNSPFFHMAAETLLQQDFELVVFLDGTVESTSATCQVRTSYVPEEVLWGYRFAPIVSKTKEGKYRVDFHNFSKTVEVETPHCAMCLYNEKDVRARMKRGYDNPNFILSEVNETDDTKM
# assay.comment: Inhibition of human ROMK1 expressed in HEK293 cells after 20 mins by Thallos-AM dye based fluorescence assay
# Format: cell-based
# assay.setup: read-out: IC50
Hi there, I'd appreciate the recorded IC50 for every entry that follows.
One number for each entry, in nM.

compound	IC50 [nM]
O=[N+]([O-])c1ccc2nc(COCc3nc4ccc([N+](=O)[O-])cc4[nH]3)[nH]c2c1	744
Cc1noc(CNC(=O)c2ccc(C)c(S(=O)(=O)Nc3ccc(Cl)cc3)c2)n1	777
COc1ccc(C(=O)NC(C)c2cnn(C)n2)cc1S(=O)(=O)Nc1ccc(Cl)cc1 (single isomer, unassigned; (-))	391

Field: next compound
Consider the compound shown here: Cc1ccc(C(=O)NCc2cn(C)nn2)cc1S(=O)(=O)Nc1ccc(-c2ccno2)cc1 What is its recorded IC50?
1040

====

# assay.comment: Apparent permeability in MDCK2-LE cells
# Format: ADME, cell-based, Canis lupus familiaris, MDCK-II
# assay.setup: dog, MDCK; read-out: Papp
Papp less than 10 ×10⁻⁶ cm/s is Condition met; Papp greater than or equal to 10 ×10⁻⁶ cm/s is Condition not met.

Completed entries (count: 2):
compound	label
Cc1ccc(C(=O)NCc2cn(C)nn2)cc1S(=O)(=O)Nc1ccc(-c2ccno2)cc1	Condition not met
Cc1ccc(NS(=O)(=O)c2cc(C(=O)NCc3nc(C)no3)ccc2C)cc1	Condition not met

Now for a further compound.
For this compound, is Papp lower than 10 ×10⁻⁶ cm/s? Cc1noc(CNC(=O)c2ccc(C)c(S(=O)(=O)Nc3ccc(-c4ccno4)cc3)c2)n1
Condition met

====

Please respond with reported pIC50 for every item in the list.
# target.entity: ATP-sensitive inward rectifier potassium channel 1 (Rattus norvegicus)
# Sequence (P35560 whole entry): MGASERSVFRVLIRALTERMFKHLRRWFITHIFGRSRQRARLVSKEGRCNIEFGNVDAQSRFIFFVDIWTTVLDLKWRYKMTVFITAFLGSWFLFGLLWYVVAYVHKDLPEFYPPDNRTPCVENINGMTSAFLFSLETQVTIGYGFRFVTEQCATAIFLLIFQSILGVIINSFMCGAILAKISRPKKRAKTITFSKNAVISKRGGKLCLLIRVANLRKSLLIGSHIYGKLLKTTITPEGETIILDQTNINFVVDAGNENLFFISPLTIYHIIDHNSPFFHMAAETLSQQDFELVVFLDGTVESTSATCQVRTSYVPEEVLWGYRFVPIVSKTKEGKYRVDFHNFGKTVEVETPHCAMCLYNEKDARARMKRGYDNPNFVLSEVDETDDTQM
# assay.comment: Inhibition of rat ROMK1 expressed in HEK293 cells after 20 mins by Thallos-AM dye based fluorescence assay
pIC50: −log10 of the molar value.

// worked examples, pIC50 included
compound	target.entity	data.value
COc1ccc(C(=O)NC(C)c2cnn(C)n2)cc1S(=O)(=O)Nc1ccc(Cl)cc1 (single isomer, unassigned; (-))	ATP-sensitive inward rectifier potassium channel 1 (Rattus norvegicus)	< 4.52
Cc1ccc(C(=O)NCc2cn(C)nn2)cc1S(=O)(=O)Nc1ccc(-c2ccno2)cc1	ATP-sensitive inward rectifier potassium channel 1 (Rattus norvegicus)	< 4.52
O=[N+]([O-])c1ccc2nc(COCc3nc4ccc([N+](=O)[O-])cc4[nH]3)[nH]c2c1	ATP-sensitive inward rectifier potassium channel 1 (Rattus norvegicus)	6.38

// below: pIC50 requested for another compound
Lookup: pIC50 / ATP-sensitive inward rectifier potassium channel 1 (Rattus norvegicus) / Cc1noc(CNC(=O)c2ccc(C)c(S(=O)(=O)Nc3ccc(Cl)cc3)c2)n1
< 4.52

====

# assay.comment: Octanol-sodium phosphate buffer partition coefficient, log D of the compound at pH 7.4 by shake flask method
# Format: physicochemical
# assay.setup: octanol/sodium phosphate buffer, read-out: logD
metric.name: logD
One number for each entry.

Reference set, count: 9
compound	logD
Cc1ccc(NS(=O)(=O)c2cc(C(=O)NCc3nc(C)no3)ccc2C)cc1	2.7
Cc1noc(CNC(=O)c2ccc(C)c(S(=O)(=O)Nc3ccc(-c4ccno4)cc3)c2)n1	2.3
Cc1ccc(C(=O)NCc2cn(C)nn2)cc1S(=O)(=O)Nc1ccc(-c2ccno2)cc1	2.4
Cc1noc(CNC(=O)c2ccc(C)c(S(=O)(=O)Nc3ccc(Cl)cc3)c2)n1	3
Cc1ccc(C(=O)NCc2cn(C)nn2)cc1S(=O)(=O)Nc1ccc(Cl)cc1	2.9
COc1ccc(C(=O)NCc2nc(C)no2)cc1S(=O)(=O)Nc1ccc(C)cc1	2.3
Cc1ccc(NS(=O)(=O)c2cccc(C(=O)NCc3nc(C)no3)c2)cc1	2.3
Cc1ccc(NS(=O)(=O)c2cc(C(=O)NCc3cccnc3)ccc2C)cc1	3
COc1ccc(C(=O)NC(C)c2cnn(C)n2)cc1S(=O)(=O)Nc1ccc(Cl)cc1 (single isomer, unassigned; (-))	2.6

Field: next compound
# logD lookup, item Cc1noc(CNC(=O)c2ccc(C)c(S(=O)(=O)Nc3ccc(-c4cnco4)cc3)c2)n1
2.2

====

# target.entity: ATP-sensitive inward rectifier potassium channel 1 (Homo sapiens)
# assay.comment: Inhibition of human ROMK2 expressed in HEK293 cells after 20 mins by Thallos-AM dye based fluorescence assay
# Assay type: cell-based
The label 1 is reserved for IC50 strictly under 200 nM; 0 covers values equal to or above it.

Use these answered entries as a reference point.
molecule	label
COc1ccc(C(=O)NC(C)c2cnn(C)n2)cc1S(=O)(=O)Nc1ccc(Cl)cc1 (single isomer, unassigned; (+))	0
Cc1ccc(NS(=O)(=O)c2cccc(C(=O)NCc3nc(C)no3)c2)cc1	0

Switching to the query record.
Does the reported IC50 of Cc1ccc(NS(=O)(=O)c2cc(C(=O)NCc3nc(C)no3)ccc2C)cc1 stay below 200 nM?
0

====

# target.entity: ATP-sensitive inward rectifier potassium channel 1 (Homo sapiens, UniProt P48048)
# assay.comment: Inhibition of human ROMK1 expressed in HEK293 cells at -75 mV holding potential by whole cell patch clamp method
# Assay type: cell-based
Please provide measured pIC50 for the entries that follow.
Give bare numbers, as −log10 of the molar value.

Solved cases below.
compound	data.value
Cc1noc(CNC(=O)c2ccc(C)c(S(=O)(=O)Nc3ccc(Cl)cc3)c2)n1	7.21
COc1ccc(C(=O)NC(C)c2cnn(C)n2)cc1S(=O)(=O)Nc1ccc(Cl)cc1 (single isomer, unassigned; (-))	7.21

Lab note: next compound to report on.
pIC50 of Cc1ccc(C(=O)NCc2cn(C)nn2)cc1S(=O)(=O)Nc1ccc(-c2ccno2)cc1 on ATP-sensitive inward rectifier potassium channel 1 (Homo sapiens, UniProt P48048)?
6.98

====

# assay.comment: Apparent intrinsic clearance in human liver microsomes
# Format: ADME, microsome
# assay.setup: read-out: CLH(app)
# if value of CLint scaled reaches 20 mL/min/kg, tag 1; if it stays below, tag 0

compound	label
Cc1ccc(C(=O)NCc2cn(C)nn2)cc1S(=O)(=O)Nc1ccc(-c2ccno2)cc1	0
Cc1noc(CNC(=O)c2ccc(C)c(S(=O)(=O)Nc3ccc(-c4ccno4)cc3)c2)n1	1
Cc1ccc(C(=O)NCc2cn(C)nn2)cc1S(=O)(=O)Nc1ccc(Cl)cc1	0
Cc1ccc(NS(=O)(=O)c2cccc(C(=O)NCc3nc(C)no3)c2)cc1	0

# bool: CLint scaled of Cc1noc(CNC(=O)c2ccc(C)c(S(=O)(=O)Nc3ccc(Cl)cc3)c2)n1 >= 20 mL/min/kg
1

Next entry: Cc1ccc(NS(=O)(=O)c2cc(C(=O)NCc3nc(C)no3)ccc2C)cc1
1

And then COc1ccc(C(=O)NC(C)c2cnn(C)n2)cc1S(=O)(=O)Nc1ccc(Cl)cc1 (single isomer, unassigned; (-)) , what is it?
0

Please answer likewise for COc1ccc(C(=O)NCc2nc(C)no2)cc1S(=O)(=O)Nc1ccc(C)cc1
0

Again, but for Cc1noc(CNC(=O)c2ccc(C)c(S(=O)(=O)Nc3ccc(-c4cnco4)cc3)c2)n1
1

Same question for Cc1ccc(NS(=O)(=O)c2cc(C(=O)NCc3cccnc3)ccc2C)cc1 please.
1

====

So I've got a bunch of compounds here, and I need their Papp values.
# assay.comment: Apparent permeability in MDCK2-LE cells
# Assay type: ADME, cell-based, Canis lupus familiaris, MDCK-II
# assay.setup: dog, MDCK; read-out: Papp
Give bare numbers, in ×10⁻⁶ cm/s.

Some solved cases for reference:
compound	metric.name	data.value
Cc1noc(CNC(=O)c2ccc(C)c(S(=O)(=O)Nc3ccc(-c4cnco4)cc3)c2)n1	Papp	10
COc1ccc(C(=O)NC(C)c2cnn(C)n2)cc1S(=O)(=O)Nc1ccc(Cl)cc1 (single isomer, unassigned; (-))	Papp	16
Cc1ccc(C(=O)NCc2cn(C)nn2)cc1S(=O)(=O)Nc1ccc(Cl)cc1	Papp	19
Cc1ccc(NS(=O)(=O)c2cc(C(=O)NCc3cccnc3)ccc2C)cc1	Papp	15
Cc1ccc(NS(=O)(=O)c2cccc(C(=O)NCc3nc(C)no3)c2)cc1	Papp	22

Please state, for each entry, its recorded Papp.
1. COc1ccc(C(=O)NCc2nc(C)no2)cc1S(=O)(=O)Nc1ccc(C)cc1
2. Cc1noc(CNC(=O)c2ccc(C)c(S(=O)(=O)Nc3ccc(Cl)cc3)c2)n1

[8, 19]
